# test_system: rat adrenergic α1B receptor (Rattus norvegicus, UniProt P15823)
# Construct: rat adrenergic α1B receptor obtained from Wistar Rat liver; from tissue; host or cells: Wistar Rat liver
# Sequence (P15823 whole entry): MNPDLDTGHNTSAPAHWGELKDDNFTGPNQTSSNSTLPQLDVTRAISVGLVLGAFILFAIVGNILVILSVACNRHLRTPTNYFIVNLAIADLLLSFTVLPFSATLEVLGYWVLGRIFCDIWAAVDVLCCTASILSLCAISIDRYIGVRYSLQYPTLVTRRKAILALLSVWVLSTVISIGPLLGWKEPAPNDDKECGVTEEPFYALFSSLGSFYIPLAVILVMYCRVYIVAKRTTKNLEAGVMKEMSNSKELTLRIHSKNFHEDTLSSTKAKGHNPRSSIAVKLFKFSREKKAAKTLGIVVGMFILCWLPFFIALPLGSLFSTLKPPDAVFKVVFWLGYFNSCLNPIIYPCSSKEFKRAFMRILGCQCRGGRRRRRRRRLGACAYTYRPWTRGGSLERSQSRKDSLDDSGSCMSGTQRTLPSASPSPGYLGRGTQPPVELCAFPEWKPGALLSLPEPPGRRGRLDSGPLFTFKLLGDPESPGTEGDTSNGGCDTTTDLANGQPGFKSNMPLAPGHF
# protocol_description: Adrenergic α1B radioligand binding assay
# assay_setup: [3H]Prozosin specific binding, read-out: Percent Inhibition of ligand binding, Adrenergic (0.1 μM ligand conc.) α1B
Everything with inhibition at 0.1 µM lower than 30% is Condition not met; everything else, including exactly 30%, is Condition met.

Here's what some known entries look like.
IN: Textbook exercise: given the entry C/C(=C\n1c2c(c3cc(C)ccc31)C1CCN(C2)C1)c1ccncc1 (stereo not drawn) [Compound 44] , state whether its inhibition at 0.1 µM is greater than or equal to 30%.
OUT: Condition not met

IN: Check the entry COc1ccc(/C(C)=C/n2c3c(c4cc(C)ccc42)C2CCN(C3)C2)cc1 (stereo not drawn) [Compound 45] : does inhibition at 0.1 µM equal or exceed 30%?
OUT: Condition not met

IN: Answer whether inhibition at 0.1 µM of Cc1ccc2c(c1)c1c(n2C(=O)Cc2ccc(Cl)cc2)CN2CCC1C2 (stereo not drawn) [Compound 36] is greater than or equal to 30%.
OUT: Condition not met

New cases:
IN: Is inhibition at 0.1 µM at least 30%? Consider C/C(=C\n1c2c(c3cc(C)ccc31)C1CCN(C2)C1)c1ccc(Cl)cc1 (stereo not drawn) [Compound 32]
OUT: Condition met

IN: Determine whether this compound has inhibition at 0.1 µM no lower than 30%: C/C(=C\n1c2c(c3cc(C)ccc31)C1CCN(C2)C1)c1ccccc1F (stereo not drawn) [Compound 38]
OUT: Condition not met

IN: Test whether the compound C/C(=C\n1c2c(c3cc(C)ccc31)C1CCN(C2)C1)c1ccc(Cl)cc1Cl (stereo not drawn) [Compound 33] records inhibition at 0.1 µM of 30% or higher.
OUT: Condition not met

* * *

# test_system: human recombinant histamine H2 receptor (Homo sapiens)
# Construct: expressed in transfected cells; host or cells: Chinese hamster ovary (CHO) K1 cells
# Sequence (P25021 whole entry): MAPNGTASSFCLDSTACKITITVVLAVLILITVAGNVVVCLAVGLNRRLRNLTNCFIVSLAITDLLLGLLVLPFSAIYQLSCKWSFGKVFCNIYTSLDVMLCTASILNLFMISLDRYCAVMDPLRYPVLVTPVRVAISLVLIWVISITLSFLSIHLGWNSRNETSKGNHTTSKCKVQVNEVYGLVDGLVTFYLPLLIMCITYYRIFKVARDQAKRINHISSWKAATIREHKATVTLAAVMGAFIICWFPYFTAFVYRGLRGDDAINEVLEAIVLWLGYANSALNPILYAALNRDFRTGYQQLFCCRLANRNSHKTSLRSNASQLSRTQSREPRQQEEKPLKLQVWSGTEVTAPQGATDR
# protocol_description: Histamine H2 radioligand binding assay
# assay_setup: [125I]Aminopotentidine specific binding, read-out: Percentage Inhibition, Histamine Binding (1 μM) H2
# Description: To evaluate in radioligand binding assays the activity of compounds of the invention, human recombinant histamine H2 receptor expressed in Chinese hamster ovary (CHO) K1 cells [Ruat, M., Proc. Natl. Acad. Sci. USA. (1990), 87(5):1658] in a 50 mM Phosphate buffer, pH 7.4 was used. […] Receptor proteins were filtered and washed, the filters were then counted to determine [^125I]Aminopotentidine specifically bound. […]
Below, each entry is listed alongside its reported inhibition at 1 µM.
Express the result in % but write the number alone.

Here is how some compounds turned out for inhibition at 1 µM.
IN: Return reported inhibition at 1 µM. Input compound: Cc1ccc2c(c1)c1c(n2CC(O)c2ccc(F)cc2)CN2CCC1C2 (centres unmarked)
OUT: 5

IN: Given the compound Cc1ccc2c(c1)c1c(n2C#Cc2ccc(Cl)cc2)CN2CCC1C2 (centres unmarked) , write its reported inhibition at 1 µM.
OUT: 19

IN: Fill in inhibition at 1 µM for record Cc1ccc2c(c1)c1c(n2CCc2nc(-c3ccccc3)cs2)CN2CCC1C2 (centres unmarked)
OUT: -9

IN: State its inhibition at 1 µM: C/C(=C\n1c2c(c3cc(C)ccc31)C1CCN(C2)C1)c1ccc(Cl)cc1 (centres unmarked)
OUT: 82

IN: Query inhibition at 1 µM for COc1ccc(C(O)Cn2c3c(c4cc(C)ccc42)C2CCN(C3)C2)cc1F (centres unmarked)
OUT: -5

API: the following record is the query input.
IN: Fill in inhibition at 1 µM for record Cc1ccc2c(c1)c1c(n2CC(=O)NC2CCCCC2)CN2CCC1C2 (centres unmarked)
OUT: -3

* * *

# test_system: human recombinant serotonin (5-Hydroxytryptamine) 5-HT7 receptor (Homo sapiens, UniProt P34969)
# Sequence (P34969 whole entry): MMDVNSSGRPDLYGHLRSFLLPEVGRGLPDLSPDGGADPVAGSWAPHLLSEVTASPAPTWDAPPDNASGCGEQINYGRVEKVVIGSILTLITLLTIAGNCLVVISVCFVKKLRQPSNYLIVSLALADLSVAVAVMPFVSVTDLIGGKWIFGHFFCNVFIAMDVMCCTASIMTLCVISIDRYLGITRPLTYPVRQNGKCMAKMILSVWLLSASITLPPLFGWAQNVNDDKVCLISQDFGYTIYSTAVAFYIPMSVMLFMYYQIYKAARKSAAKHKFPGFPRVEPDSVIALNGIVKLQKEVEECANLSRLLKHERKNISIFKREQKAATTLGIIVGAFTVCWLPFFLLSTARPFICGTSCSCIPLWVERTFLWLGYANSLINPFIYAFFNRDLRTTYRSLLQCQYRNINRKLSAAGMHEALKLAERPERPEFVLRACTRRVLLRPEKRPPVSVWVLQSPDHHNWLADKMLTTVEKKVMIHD
# protocol_description: Serotonin 5-HT7 radioligand binding assay
# assay_setup: [3H]LSD specific binding, read-out: Percent Inhibition of ligand binding, Serotonin (1 μM ligand concentration) 5-HT7
endpoint_name: inhibition at 1 µM
Hey, just the number and the unit after it is fine.

For orientation, consider the following solved cases.
IN: Give inhibition at 1 µM for the following compound: C/C(=C\n1c2c(c3cc(C)ccc31)C1CCN(C2)C1)c1ccccc1F (centres unmarked) [Compound 38]
OUT: 95%

IN: Item C/C(=C\n1c2c(c3cc(C)ccc31)C1CCN(C2)C1)c1ccc(Cl)cc1 (centres unmarked) [Compound 32] : provide inhibition at 1 µM
OUT: 96%

IN: Tell me inhibition at 1 µM reported for Cc1ccc2c(c1)c1c(n2CC(O)c2ccc(F)cc2)CN2CCC1C2 (centres unmarked) [Compound 31]
OUT: 73%

Next:
IN: Let me know recorded inhibition at 1 µM for C/C(=C\n1c2c(c3cc(C)ccc31)C1CCN(C2)C1)c1cccnc1 (centres unmarked) [Compound 42] , thanks.
OUT: 92%

IN: Report measured inhibition at 1 µM; entry is COc1ccc(/C(C)=C/n2c3c(c4cc(C)ccc42)C2CCN(C3)C2)cc1F (centres unmarked) [Compound 41]
OUT: 90%

IN: Give the reported value of inhibition at 1 µM for this record: C/C(=C\n1c2c(c3cc(C)ccc31)C1CCN(C2)C1)c1ccncc1 (centres unmarked) [Compound 44]
OUT: 80%

IN: Identify measured inhibition at 1 µM associated with Cc1ccc2c(c1)c1c(n2CC(=O)c2ccc(Cl)cc2)CN2CCC1C2 (centres unmarked) [Compound 29]
OUT: 81%

IN: Give me measured inhibition at 1 µM, please, for this compound: C/C(=C\n1c2c(c3cc(C)ccc31)C1CCN(C2)C1)c1ccc(F)c(F)c1 (centres unmarked) [Compound 39]
OUT: 96%

IN: Provide only the value of recorded inhibition at 1 µM for C/C(=C\n1c2c(c3cc(C)ccc31)C1CCN(C2)C1)c1ccc(Cl)cc1Cl (centres unmarked) [Compound 33]
OUT: 96%

IN: # return recorded inhibition at 1 µM for input Cc1ccc2c(c1)c1c(n2CC(=O)c2ccc(F)cc2)CN2CCC1C2 (centres unmarked) [Compound 28]
OUT: 82%

IN: Answer with the recorded inhibition at 1 µM for the compound listed here: Cc1ccc2c(c1)c1c(n2CCc2ccncc2)CN2CCC1C2 (centres unmarked) [Compound 30]
OUT: 95%

* * *

# test_system: human recombinant histamine H1 receptor (Homo sapiens)
# Sequence (P35367 whole entry): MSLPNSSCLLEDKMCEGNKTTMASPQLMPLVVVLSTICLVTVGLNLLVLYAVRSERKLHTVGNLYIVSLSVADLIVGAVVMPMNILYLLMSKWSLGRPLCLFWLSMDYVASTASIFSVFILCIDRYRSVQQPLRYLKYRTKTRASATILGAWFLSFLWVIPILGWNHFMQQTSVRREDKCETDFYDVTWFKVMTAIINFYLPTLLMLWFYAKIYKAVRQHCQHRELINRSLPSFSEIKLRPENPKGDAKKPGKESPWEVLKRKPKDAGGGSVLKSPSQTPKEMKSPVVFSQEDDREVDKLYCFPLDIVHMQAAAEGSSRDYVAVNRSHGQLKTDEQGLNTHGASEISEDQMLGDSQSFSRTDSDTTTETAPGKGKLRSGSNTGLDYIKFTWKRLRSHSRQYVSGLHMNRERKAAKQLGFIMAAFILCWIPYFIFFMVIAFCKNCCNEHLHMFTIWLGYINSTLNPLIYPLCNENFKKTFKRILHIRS
# protocol_description: Histamine H1 radioligand binding assay
# assay_setup: [3H]Pyrilamine specific binding, 1 µM
Recorded Percentage Inhibition, Histamine Binding (1 μM) H1 values for a group of compounds are listed next.
Give the value; after it, write the unit.

Take a look at these entries with their results.
IN: Fill in reported Percentage Inhibition, Histamine Binding (1 μM) H1 for this entry: C/C(=C\n1c2c(c3cc(C)ccc31)C1CCN(C2)C1)c1ccc(Cl)cc1Cl (stereo not shown) [Compound 34]
OUT: 34%

IN: Given the compound C/C(=C\n1c2c(c3cc(C)ccc31)C1CCN(C2)C1)c1ccc(Cl)cc1Cl (stereo not shown) [Compound 33] , write its reported Percentage Inhibition, Histamine Binding (1 μM) H1.
OUT: 76%

IN: Please look at this compound and report its Percentage Inhibition, Histamine Binding (1 μM) H1: C=C(Cn1c2c(c3cc(C)ccc31)C1CCN(C2)C1)c1ccc(F)cc1 (stereo not shown)
OUT: 60%

Pending compound:
IN: Please report the measured Percentage Inhibition, Histamine Binding (1 μM) H1 for C/C(=C\n1c2c(c3cc(C)ccc31)C1CCN(C2)C1)c1ccc(F)cc1 (stereo not shown)
OUT: 58%

* * *

# test_system: human recombinant adrenergic α1D receptor (Homo sapiens)
# Construct: expressed in transfected cells; host or cells: human embryonic kidney (HEK-293) cells
# Sequence (P25100 1-572): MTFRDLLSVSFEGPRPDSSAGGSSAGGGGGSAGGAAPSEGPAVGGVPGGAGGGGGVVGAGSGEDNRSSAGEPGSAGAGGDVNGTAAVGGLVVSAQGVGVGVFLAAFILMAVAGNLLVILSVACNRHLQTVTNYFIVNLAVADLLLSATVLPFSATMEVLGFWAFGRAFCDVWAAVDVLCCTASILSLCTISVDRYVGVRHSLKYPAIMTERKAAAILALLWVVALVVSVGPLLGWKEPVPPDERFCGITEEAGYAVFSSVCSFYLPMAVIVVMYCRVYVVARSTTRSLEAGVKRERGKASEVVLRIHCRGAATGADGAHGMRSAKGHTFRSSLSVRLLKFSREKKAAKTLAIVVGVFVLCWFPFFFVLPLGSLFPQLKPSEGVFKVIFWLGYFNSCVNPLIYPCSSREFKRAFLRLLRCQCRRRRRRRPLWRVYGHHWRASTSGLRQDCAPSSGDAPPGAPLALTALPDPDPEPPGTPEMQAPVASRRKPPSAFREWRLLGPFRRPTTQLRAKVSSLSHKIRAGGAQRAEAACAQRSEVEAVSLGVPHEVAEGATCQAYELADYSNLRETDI
# protocol_description: Adrenergic α1D radioligand binding assay
# assay_setup: 1 μM; [3H]Prozosin specific binding; read-out: Percent Inhibition of ligand binding, Adrenergic (1 μM ligand conc.) α1D
# Experimental: To evaluate in radioligand binding assays the activity of compounds of the invention, human recombinant adrenergic α1D receptor expressed in human embryonic kidney (HEK-293) cells [Kenny, B. A. et al. Br. J. Pharmacol. (1995), 115(6):981] in a 50 mM Tris-HCl buffer, pH 7.4, was used. Compounds of invention were incubated with 0.6 nM [^3H]Prozosin for 60 min. at 25° C. […] Receptor proteins were filtered and washed, the filters were then counted to determine [^3H]Prozosin specifically bound. […]
endpoint_name: inhibition at 1 µM (%)
Give the quantity in %, number only.

Use the examples below as a reference point.
IN: // fetch inhibition at 1 µM given entry Cc1ccc2c(c1)c1c(n2CC(C)(O)c2ccc(F)cc2)CN2CCC1C2 (stereo not drawn)
OUT: 15

IN: Specify reported inhibition at 1 µM for the molecule shown: C=C(Cn1c2c(c3cc(C)ccc31)C1CCN(C2)C1)c1ccc(F)cc1 (stereo not drawn)
OUT: 93

IN: Note down inhibition at 1 µM recorded for Cc1ccc2c(c1)c1c(n2CC(=O)c2ccccc2)CN2CCC1C2 (stereo not drawn)
OUT: -4

IN: Give the reported value of inhibition at 1 µM for this record: Cc1ccc2c(c1)c1c(n2CC(=O)N2CCNCC2)CN2CCC1C2 (stereo not drawn)
OUT: 2

IN: Annotate the molecule Cc1ccc(C(O)Cn2c3c(c4cc(C)ccc42)C2CCN(C3)C2)cc1 (stereo not drawn) with its measured inhibition at 1 µM.
OUT: 34

IN: Return inhibition at 1 µM for the following molecule: Cc1ccc2c(c1)c1c(n2CCc2cncc(F)c2)CN2CCC1C2 (stereo not drawn)
OUT: 24

IN: Given the molecule Cc1ccc2c(c1)c1c(n2CC(C)(O)c2ccc(Cl)cc2Cl)CN2CCC1C2 (stereo not drawn) , write its reported inhibition at 1 µM.
OUT: -5

IN: State its inhibition at 1 µM for this molecule: Cc1ccc(/C=C/n2c3c(c4cc(C)ccc42)C2CCN(C3)C2)cc1 (stereo not drawn)
OUT: 73

IN: Give reported inhibition at 1 µM value for Cc1ccc2c(c1)c1c(n2CC(C)(O)c2ccc(F)cc2F)CN2CCC1C2 (stereo not drawn)
OUT: 19

IN: Report measured inhibition at 1 µM; entry is Cc1ccc2c(c1)c1c(n2CC(=O)N2CCCCC2)CN2CCC1C2 (stereo not drawn)
OUT: -7

Further cases:
IN: Supply measured inhibition at 1 µM of Cc1ccc2c(c1)c1c(n2CC(C)(O)c2ccc(F)c(F)c2)CN2CCC1C2 (stereo not drawn) in your reply.
OUT: 28

IN: Report inhibition at 1 µM for Cc1ccc2c(c1)c1c(n2CCc2ccc(C)nc2)CN2CCC1C2 (stereo not drawn)
OUT: 25

IN: Please give measured inhibition at 1 µM of the following entry: Cc1ccc2c(c1)c1c(n2CC(=O)c2ccc(Cl)cc2)CN2CCC1C2 (stereo not drawn)
OUT: 42

IN: State its inhibition at 1 µM: Cc1ccc2c(c1)c1c(n2CCc2ccncc2)CN2CCC1C2 (stereo not drawn)
OUT: 40
